Target: T1, human ferroportin (SLC40A1) fused in frame with GFP, stably expressed in HEK293 cells (human, UniProt Q9NP59 1-571)
T1 sequence (looked up): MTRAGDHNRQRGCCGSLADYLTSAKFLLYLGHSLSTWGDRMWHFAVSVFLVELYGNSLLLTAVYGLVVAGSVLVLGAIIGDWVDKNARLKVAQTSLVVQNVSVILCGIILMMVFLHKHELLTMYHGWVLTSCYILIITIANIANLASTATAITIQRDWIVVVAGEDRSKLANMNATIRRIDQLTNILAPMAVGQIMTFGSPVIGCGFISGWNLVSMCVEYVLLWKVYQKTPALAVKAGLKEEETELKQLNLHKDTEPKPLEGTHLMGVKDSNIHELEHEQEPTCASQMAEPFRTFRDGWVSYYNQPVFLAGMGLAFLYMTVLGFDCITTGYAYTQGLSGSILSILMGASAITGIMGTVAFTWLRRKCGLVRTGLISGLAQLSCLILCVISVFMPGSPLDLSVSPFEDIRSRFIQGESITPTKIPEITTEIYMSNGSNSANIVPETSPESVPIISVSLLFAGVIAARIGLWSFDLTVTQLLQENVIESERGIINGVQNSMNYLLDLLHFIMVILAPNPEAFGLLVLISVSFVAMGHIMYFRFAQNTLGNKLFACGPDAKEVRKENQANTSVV
Assay: cell-based or functional assay
Starred links: 1 amine or outer side, 2 acyl side, 3 side chain; linkers in the order of their positions; H or OH if unused. Positions of bridges follow the written chain, without caps; N, C: chain ends. Non-standard residues stand in square brackets, D forms with d. Groups on a side chain read outwards from the residue. Primed or numbered codes have the meaning given here. *: point of attachment. Tet2 = (S)-2-amino-4-(1H-tetrazol-5-yl)butanoic acid, O=C([C@H](CCc1nn[nH]n1)N[*:1])[*:2]; ButanoicP = (R)-4-(pyrrolidin-2-yl)butanoic acid, O=C(CCC[C@@H]1CCCN1[*:1])[*:2]; Ala(1H-tetrazol-5-yl) = N[C@@H](Cc1nnn[nH]1)C(=O)O; C18 diacid = O=C(O)CCCCCCCCCCCCCCCCC(=O)*; Dip = N[C@H](C(=O)O)C(c1ccccc1)c1ccccc1; γGlu = O=C(O)[C@H](CCC(=O)[*:2])N[*:1]; His(τ-Me) = Cn1cnc(C[C@H](N)C(=O)O)c1; N(isopentyl)Gly′ = not defined here; Palmitoyl = CCCCCCCCCCCCCCCC(=O)*; NMeF = CN[C@@H](Cc1ccccc1)C(=O)O; β3hF = N[C@H](CC(=O)O)Cc1ccccc1; NMeK = CN[C@@H](CCCCN)C(=O)O; Isovaleryl = CC(C)CC(=O)*; (Me)Leu = methyl-leucine; AEEA = NCCOCCOCC(=O)O; Ahx = NCCCCCC(=O)O
Could you mark each record Criterion met if its FPN EC50 falls strictly under 700 nM, and Criterion not met if it equals or exceeds it?

[
  {
    "BINDER": "Isovaleryl-ETHFPAIK([AEEA-AEEA-γGlu-C18 diacid])FEPRSKGAK-NH2 [Isovaleric Acid-E-T-H-F-P-A-I-[Lys(1PEG2_1PEG2_IsoGlu_C18_Diacid)]-F-E-P-R-S-K-G-A-K-NH2]",
    "CAT": "Criterion not met"
  },
  {
    "BINDER": "Isovaleryl-ETH[Dip][ButanoicP][β3hF]K([Ahx-Palmitoyl])-NH2 (SMILES CCCCCCCCCCCCCCCC(=O)NCCCCCC(=O)NCCCC[C@H](NC(=O)C[C@H](Cc1ccccc1)NC(=O)CCC[C@@H]1CCCN1C(=O)[C@@H](NC(=O)[C@H](Cc1c[nH]cn1)NC(=O)[C@@H](NC(=O)[C@H](CCC(=O)O)NC(=O)CC(C)C)[C@@H](C)O)C(c1ccccc1)c1ccccc1)C(N)=O) [Isovaleric Acid-E-T-H-[Dpa]-[ButanoicP]-[bhPhe]-[Lys(Ahx_Palm)]-NH2]",
    "CAT": "Criterion met"
  },
  {
    "BINDER": "Isovaleryl-[Ala(1H-tetrazol-5-yl)]T[His(τ-Me)][Dip]PAI[β3hF][dK]A-NH2 (SMILES CC[C@H](C)[C@H](NC(=O)[C@H](C)NC(=O)[C@@H]1CCCN1C(=O)[C@@H](NC(=O)[C@H](Cc1cn(C)cn1)NC(=O)[C@@H](NC(=O)[C@H](Cc1nnn[nH]1)NC(=O)CC(C)C)[C@@H](C)O)C(c1ccccc1)c1ccccc1)C(=O)N[C@H](CC(=O)N[C@H](CCCCN)C(=O)N[C@@H](C)C(N)=O)Cc1ccccc1) [Isovaleric Acid-[Tet1]-T-[(1-Me)His]-[Dpa]-P-A-I-[bhPhe]-[(D)Lys]-A-NH2]",
    "CAT": "Criterion met"
  },
  {
    "BINDER": "Isovaleryl-ETH[Dip]PA[N(isopentyl)Gly′]K([Ahx-Palmitoyl])[β3hF]-NH2 [Isovaleric Acid-E-T-H-[Dpa]-P-A-[N-(isopenty1)Gly]-[Lys(Ahx_Palm)]-[bhPhe]-NH2]",
    "CAT": "Criterion met"
  },
  {
    "BINDER": "Isovaleryl-LTH[Dip]P[(Me)Leu]IK([Ahx-Palmitoyl])[NMeF]-NH2 [Isovaleric Acid-L-T-H-[Dpa]-P-[(Me)Leu]-I-[Lys(Ahx_Palm)]-[(Me)Phe]-NH2]",
    "CAT": "Criterion not met"
  },
  {
    "BINDER": "Isovaleryl-[Ala(1H-tetrazol-5-yl)]T[His(τ-Me)][Dip]PAI[NMeK][β3hF]K([Ahx-Palmitoyl])-NH2 (SMILES CCCCCCCCCCCCCCCC(=O)NCCCCCC(=O)NCCCC[C@H](NC(=O)C[C@H](Cc1ccccc1)NC(=O)[C@H](CCCCN)N(C)C(=O)[C@@H](NC(=O)[C@H](C)NC(=O)[C@@H]1CCCN1C(=O)[C@@H](NC(=O)[C@H](Cc1cn(C)cn1)NC(=O)[C@@H](NC(=O)[C@H](Cc1nnn[nH]1)NC(=O)CC(C)C)[C@@H](C)O)C(c1ccccc1)c1ccccc1)[C@@H](C)CC)C(N)=O) [Isovaleric Acid-[Tet1]-T-[(1Me)His]-[Dpa]-P-A-I-[(N-Me)Lys]-[bhPhe]-[Lys(Ahx_Palm)]-NH2]",
    "CAT": "Criterion met"
  },
  {
    "BINDER": "Isovaleryl-[Tet2]T[His(τ-Me)][Dip]PAIK(Ac)[β3hF][dK]-NH2 (SMILES CC[C@H](C)[C@H](NC(=O)[C@H](C)NC(=O)[C@@H]1CCCN1C(=O)[C@@H](NC(=O)[C@H](Cc1cn(C)cn1)NC(=O)[C@@H](NC(=O)[C@H](CCc1nn[nH]n1)NC(=O)CC(C)C)[C@@H](C)O)C(c1ccccc1)c1ccccc1)C(=O)N[C@@H](CCCCNC(C)=O)C(=O)N[C@H](CC(=O)N[C@H](CCCCN)C(N)=O)Cc1ccccc1) [Isovaleric Acid-[Tet2]-T-[(1-Me)His]-[Dpa]-P-A-I-[Lys(Ac)]-[bhPhe]-[(D)Lys]-NH2]",
    "CAT": "Criterion not met"
  },
  {
    "BINDER": "Isovaleryl-ETA[Dip]PAI[dK][β3hF]K([Ahx-Palmitoyl])[dK]A-NH2 (SMILES CCCCCCCCCCCCCCCC(=O)NCCCCCC(=O)NCCCC[C@H](NC(=O)C[C@H](Cc1ccccc1)NC(=O)[C@@H](CCCCN)NC(=O)[C@@H](NC(=O)[C@H](C)NC(=O)[C@@H]1CCCN1C(=O)[C@@H](NC(=O)[C@H](C)NC(=O)[C@@H](NC(=O)[C@H](CCC(=O)O)NC(=O)CC(C)C)[C@@H](C)O)C(c1ccccc1)c1ccccc1)[C@@H](C)CC)C(=O)N[C@H](CCCCN)C(=O)N[C@@H](C)C(N)=O) [Isovaleric Acid-E-T-A-[Dpa]-P-A-I-[(D)Lys]-[bhPhe]-[Lys(Ahx_Palm)]-[(D)Lys]-A-NH2]",
    "CAT": "Criterion met"
  }
]

## Input Determine whether this binder shows FPN EC50 lower than 700 nM (ties excluded): Isovaleryl-[dR]TH[Dip]PAIK([AEEA-AEEA-Ahx-C18 diacid])[β3hF][dK]-NH2 (SMILES CC[C@H](C)[C@H](NC(=O)[C@H](C)NC(=O)[C@@H]1CCCN1C(=O)[C@@H](NC(=O)[C@H](Cc1c[nH]cn1)NC(=O)[C@@H](NC(=O)[C@@H](CCCNC(=N)N)NC(=O)CC(C)C)[C@@H](C)O)C(c1ccccc1)c1ccccc1)C(=O)N[C@@H](CCCCNC(=O)COCCOCCNC(=O)COCCOCCNC(=O)CCCCCNC(=O)CCCCCCCCCCCCCCCCC(=O)O)C(=O)N[C@H](CC(=O)N[C@H](CCCCN)C(N)=O)Cc1ccccc1) [Isovaleric Acid-[(D)Arg]-T-H-[Dpa]-P-A-I-[Lys(1PEG2_1PEG2_Ahx_C18_Diacid)]-[bhPhe]-[(D)Lys]-NH2]
## Output Criterion not met

## Input Determine whether this binder shows FPN EC50 lower than 700 nM (ties excluded): Isovaleryl-ETH[Dip]PAI[dK]K(Ac)-NH2 [Isovaleric Acid-E-T-H-[Dpa]-P-A-I-[(D)Lys]-[Lys(Ac)]-NH2]
## Output Criterion not met

## Input Determine whether this binder shows FPN EC50 lower than 700 nM (ties excluded): Isovaleryl-ETH[Dip]PKIK([Ahx-Palmitoyl])[β3hF][dK]-NH2 (lactam 1-6 (inferred)) [Isovaleric Acid-E-T-H-[Dpa]-P-K-I-[Lys(Ahx_Palm)]-[bhPhe]-[(D)Lys]-NH2; (E and K cyclized)]
## Output Criterion met
